# Assay: Stability in human liver microsomes
# Condition Notes: human, human liver microsomes

Molecule	half-life
O=c1[nH]c(=O)n([C@H]2C[C@H](O)[C@@H](CO)O2)cc1F [Floxuridine, 5-fluoro-2′-deoxyuridine, reference compound]	< 0.2 min

###

# Assay: Hydrolysis in Caco-2 cell homogenate
# Format: in vitro ADME, human
# Condition Notes: human, Caco-2, pH 7.4
Value Kind: half-life (min)

Molecule	Readout Value
O=c1[nH]c(=O)n([C@H]2C[C@H](O)[C@@H](CO)O2)cc1F [Floxuridine, 5-fluoro-2′-deoxyuridine, reference compound]	14.3

###

# Assay: Hydrolysis in Caco-2 cell homogenate
# Type: in vitro ADME, human
# Condition Notes: pH 7.4 phosphate buffer, 37°C; mean ± SD, n = 3; NA = no significant degradation
Tick satisfied if Half-lives, Caco-2 Cell Homogenate is 60 min or greater. Tick not satisfied if Half-lives, Caco-2 Cell Homogenate is less than 60 min.

Molecule	Class
CC(C)[C@H](N)C(=O)OC[C@H]1O[C@@H](n2cc(F)c(=O)[nH]c2=O)C[C@@H]1O [5′-O-L-valyl-floxuridine]	not satisfied
N[C@@H](Cc1ccccc1)C(=O)N[C@@H](Cc1ccc(O)cc1)C(=O)OC[C@H]1O[C@@H](n2cc(F)c(=O)[nH]c2=O)C[C@@H]1O	satisfied
CC(C)[C@@H](N)C(=O)OC[C@H]1O[C@@H](n2cc(F)c(=O)[nH]c2=O)C[C@@H]1O [5′-O-D-valyl-floxuridine]	satisfied
CC[C@H](C)[C@H](N)C(=O)OC[C@H]1O[C@@H](n2cc(F)c(=O)[nH]c2=O)C[C@@H]1O [5′-O-L-isoleucyl-floxuridine]	satisfied
N[C@@H](Cc1ccccc1)C(=O)OC[C@H]1O[C@@H](n2cc(F)c(=O)[nH]c2=O)C[C@@H]1O [5′-O-L-phenylalanyl-floxuridine]	not satisfied
CC(C)[C@H](N)C(=O)N[C@@H](Cc1ccccc1)C(=O)OC[C@H]1O[C@@H](n2cc(F)c(=O)[nH]c2=O)C[C@@H]1O [5′-O-L-valyl-L-phenylalanyl-floxuridine]	not satisfied
N[C@@H](Cc1ccccc1)C(=O)NCC(=O)OC[C@H]1O[C@@H](n2cc(F)c(=O)[nH]c2=O)C[C@@H]1O [5′-O-L-phenylalanyl-L-glycyl-floxuridine]	not satisfied
CC(C)C[C@H](N)C(=O)OC[C@H]1O[C@@H](n2cc(F)c(=O)[nH]c2=O)C[C@@H]1O [5′-O-L-leucyl-floxuridine]	not satisfied

###

# Assay: Hydrolysis in Capan-2 cell homogenate
# Format: in vitro ADME, human
# Condition Notes: human, Capan-2 cell homogenate, pH 7.4

Compound	Unit	half-life
O=c1[nH]c(=O)n([C@H]2C[C@H](O)[C@@H](CO)O2)cc1F [Floxuridine, 5-fluoro-2′-deoxyuridine, reference compound]	min	17.8

###

# Assay: Hydrolysis in human non-tumor liver tissue homogenate
# Assay type: in vitro ADME
# Condition Notes: mean ± SD, n = 3; NA = no significant degradation
Recorded Half-lives, Human non-Tumor Liver Tissue Homogenate by entry
Value Kind: Half-lives, Human non-Tumor Liver Tissue Homogenate (min)

Molecule	Comparison Operator	Readout Value
N[C@@H](Cc1ccccc1)C(=O)NCC(=O)OC[C@H]1O[C@@H](n2cc(F)c(=O)[nH]c2=O)C[C@@H]1O [5′-O-L-phenylalanyl-L-glycyl-floxuridine]	=	3.2
CC(C)[C@@H](N)C(=O)OC[C@H]1O[C@@H](n2cc(F)c(=O)[nH]c2=O)C[C@@H]1O [5′-O-D-valyl-floxuridine]	=	19.0
CC(C)C[C@H](N)C(=O)OC[C@H]1O[C@@H](n2cc(F)c(=O)[nH]c2=O)C[C@@H]1O [5′-O-L-leucyl-floxuridine]	<	0.2
CC[C@H](C)[C@H](N)C(=O)OC[C@H]1O[C@@H](n2cc(F)c(=O)[nH]c2=O)C[C@@H]1O [5′-O-L-isoleucyl-floxuridine]	=	5.2
N[C@@H](Cc1ccccc1)C(=O)OC[C@H]1O[C@@H](n2cc(F)c(=O)[nH]c2=O)C[C@@H]1O [5′-O-L-phenylalanyl-floxuridine]	=	3.2
N[C@@H](Cc1ccccc1)C(=O)N[C@@H](Cc1ccc(O)cc1)C(=O)OC[C@H]1O[C@@H](n2cc(F)c(=O)[nH]c2=O)C[C@@H]1O	=	358.3
CC(C)[C@H](N)C(=O)OC[C@H]1O[C@@H](n2cc(F)c(=O)[nH]c2=O)C[C@@H]1O [5′-O-L-valyl-floxuridine]	=	2.0
CC(C)[C@H](N)C(=O)N[C@@H](Cc1ccccc1)C(=O)OC[C@H]1O[C@@H](n2cc(F)c(=O)[nH]c2=O)C[C@@H]1O [5′-O-L-valyl-L-phenylalanyl-floxuridine]	=	2.2

###

# Assay: Hydrolysis in human pancreas
# Format: in vitro ADME
# Condition Notes: human, human pancreas tissue homogenate, non-tumor, pH 7.4

Compound	half-life / min
O=c1[nH]c(=O)n([C@H]2C[C@H](O)[C@@H](CO)O2)cc1F [Floxuridine, 5-fluoro-2′-deoxyuridine, reference compound]	209

###

Recorded Half-lives, Human Tumor Liver Tissue Homogenate by entry
# Assay: Hydrolysis in human tumor liver tissue homogenate
# Format: in vitro ADME
# Condition Notes: mean ± SD, n = 3; NA = no significant degradation
Value Kind: Half-lives, Human Tumor Liver Tissue Homogenate

Mol	Readout Value
N[C@@H](Cc1ccccc1)C(=O)N[C@@H](Cc1ccc(O)cc1)C(=O)OC[C@H]1O[C@@H](n2cc(F)c(=O)[nH]c2=O)C[C@@H]1O	241.4 ± 5.1 min
CC(C)[C@H](N)C(=O)N[C@@H](Cc1ccccc1)C(=O)OC[C@H]1O[C@@H](n2cc(F)c(=O)[nH]c2=O)C[C@@H]1O	< 0.2 min ^* ^∞
CC(C)[C@H](N)C(=O)OC[C@H]1O[C@@H](n2cc(F)c(=O)[nH]c2=O)C[C@@H]1O	3.5 ± 0.2 ^∞ min
CC[C@H](C)[C@H](N)C(=O)OC[C@H]1O[C@@H](n2cc(F)c(=O)[nH]c2=O)C[C@@H]1O	< 0.2 min ^∞
CC(C)[C@@H](N)C(=O)OC[C@H]1O[C@@H](n2cc(F)c(=O)[nH]c2=O)C[C@@H]1O	9.4 ± 0.5 ^∞ min

###

# Assay: Stability in human liver microsomes
# Condition Notes: mean ± SD, n = 3; NA = no significant degradation
Value Kind: Half-lives, Human Liver Microsomes (min)

Mol	Unit	Readout Value
CC(C)[C@H](N)C(=O)OC[C@H]1O[C@@H](n2cc(F)c(=O)[nH]c2=O)C[C@@H]1O	min	2.9
CC(C)[C@H](N)C(=O)N[C@@H](Cc1ccccc1)C(=O)OC[C@H]1O[C@@H](n2cc(F)c(=O)[nH]c2=O)C[C@@H]1O	min	24.7
N[C@@H](Cc1ccccc1)C(=O)OC[C@H]1O[C@@H](n2cc(F)c(=O)[nH]c2=O)C[C@@H]1O	min	1.3
CC(C)C[C@H](N)C(=O)OC[C@H]1O[C@@H](n2cc(F)c(=O)[nH]c2=O)C[C@@H]1O	min	0.8
N[C@@H](Cc1ccccc1)C(=O)N[C@@H](Cc1ccc(O)cc1)C(=O)OC[C@H]1O[C@@H](n2cc(F)c(=O)[nH]c2=O)C[C@@H]1O	min	253.0
CC[C@H](C)[C@H](N)C(=O)OC[C@H]1O[C@@H](n2cc(F)c(=O)[nH]c2=O)C[C@@H]1O	min	19.4
CC(C)[C@@H](N)C(=O)OC[C@H]1O[C@@H](n2cc(F)c(=O)[nH]c2=O)C[C@@H]1O	min	705.9
N[C@@H](Cc1ccccc1)C(=O)NCC(=O)OC[C@H]1O[C@@H](n2cc(F)c(=O)[nH]c2=O)C[C@@H]1O	min	15.9

###

# Assay: Hydrolysis in human non-tumor liver tissue homogenate
# Assay type: in vitro ADME
# Condition Notes: human, human non-tumor liver tissue homogenate, pH 7.4
Value Kind: half-life (min)

Compound	Unit	Readout Value
O=c1[nH]c(=O)n([C@H]2C[C@H](O)[C@@H](CO)O2)cc1F [Floxuridine, 5-fluoro-2′-deoxyuridine, reference compound]	min	5

###

# Assay: Hydrolysis in human small intestinal
# Assay type: in vitro ADME
# Condition Notes: human, pH 7.4
Value Kind: half-life

Compound	Readout Value
O=c1[nH]c(=O)n([C@H]2C[C@H](O)[C@@H](CO)O2)cc1F [Floxuridine, 5-fluoro-2′-deoxyuridine, reference compound]	14 min
